tested on: SK-MEL-28 melanoma; test: NCI tumour cell line growth inhibition, 48 h; in the data active means GI50 below about 0.43 µM; inactive means the rest
Outcomes: active, inactive

MOLECULE	ASSAYED SYSTEM	ANSWER LABEL
CC[C@H](C)C(=O)O[C@H]1CCC=C2C=C[C@H](C)C(CCC3C[C@@H](O)CC(=O)O3)[C@H]21 (some centres undefined)	SK-MEL-28 melanoma	inactive
c1ccc2cc(Cn3c(-c4ccc5ccccc5c4)[n+](Cc4ccc5ccccc5c4)c4ccccc43)ccc2c1	SK-MEL-28 melanoma	active
COc1cc(-c2nc3ccccc3s2)ccc1OCc1nc2n(n1)S(=O)(=O)c1ccccc1N2C	SK-MEL-28 melanoma	inactive
O=C(Cn1ccnc1[N+](=O)[O-])NCC(F)(F)C(F)(F)F	SK-MEL-28 melanoma	inactive
COc1ccc2c(c1)Cc1c-2c(NN)nc2ccccc12	SK-MEL-28 melanoma	inactive
O=C1/C(=C/C(Cl)=C/c2ccccc2)SC(=S)N1CCc1ccc(O)cc1	SK-MEL-28 melanoma	inactive
CCOC(=O)c1c(Cl)c2c(n1Cc1cc(OC)cc(OC)c1)-c1oncc1CCC2	SK-MEL-28 melanoma	inactive
CC(C)=CCC/C(C)=C/CC/C(=C/COP(=O)(OCc1ccc([N+](=O)[O-])o1)N(C)CCCCCl)C(C)(C)C (centres undefined)	SK-MEL-28 melanoma	inactive
[N-]=[N+]=CC(=O)OCC(N)C(=O)O (centres undefined)	SK-MEL-28 melanoma	inactive
CO[C@H](C(=O)N[C@@H](CCCCNC(=O)OCc1ccccc1)C(=O)OC(C)(C)C)[C@@H]1Cc2cc3cc(OC4CC(OC5CC(O)C(O)C(C)O5)C(O)C(C)O4)c(C)c(O)c3c(O)c2C(=O)[C@H]1OC1CC(OC2CC(OC3CC(C)(O)C(O)C(C)O3)C(O)C(C)O2)C(O)C(C)O1 (some centres undefined)	SK-MEL-28 melanoma	inactive
NC(=O)Oc1cc(OC(N)=O)cc(N(CCCl)CCCl)c1	SK-MEL-28 melanoma	inactive
C/C(=C\c1c[nH]c2ccccc12)[N+](=O)[O-]	SK-MEL-28 melanoma	inactive
Cc1cc(C)nc(SC2=C(Nc3cccc(Cl)c3)C(=O)N(Cc3ccccc3)C2=O)n1	SK-MEL-28 melanoma	inactive
COc1ccc(Nc2ccnc(NCCCNc3ccnc4cc(Cl)ccc34)n2)cc1	SK-MEL-28 melanoma	inactive

----------
tested on: NCI/ADR-RES ovarian; test: NCI tumour cell line growth inhibition, 48 h

COMPOUND	ASSAYED SYSTEM	TGI
O=C1C=CC2(C=C1)CCN=c1c(O)c3c(c(O)c12)=NC=N3	NCI/ADR-RES ovarian	> 100 µM
Cc1ccc(NC(=O)c2ccnc(N3CCCC3)c2)cc1-c1ccc(C(=O)NCC2CC2)cc1	NCI/ADR-RES ovarian	> 25 µM
O=c1[nH]c(=O)n(C2CC(O)C(CO)O2)c2nc3ccc4ccccc4c3nc12 (centres undefined)	NCI/ADR-RES ovarian	> 100 µM
CCn1c(SCC(=O)NNC(=S)Nc2ccc(F)cc2)nc2ccccc2c1=O	NCI/ADR-RES ovarian	> 100 µM
C=C1CC(COc2ccc3ccc(=O)oc3c2)(c2ccccc2)OC1=O (centres undefined)	NCI/ADR-RES ovarian	12.4 µM
COc1cnc2c(c1)C(=O)c1c-2n(CCCN2CCN(C)CC2)c(=O)c2cc(Cl)ccc12	NCI/ADR-RES ovarian	24.5 µM
CC(C)(CCCCC(C)(C)NCC1COc2ccccc2O1)NCC1COc2ccccc2O1 (centres undefined)	NCI/ADR-RES ovarian	> 10 µM
CO[C@H]1CC[C@@]2(C)C(=CC[C@H]3[C@@H]4C[C@H](O)C[C@@]4(C)CC[C@@H]32)C1	NCI/ADR-RES ovarian	39.9 µM
N#CC1=C(N2CCOCC2)CCC1	NCI/ADR-RES ovarian	> 100 µM
CC(C)=CCC/C(C)=C/CC/C(=C/COP(=O)(OCc1ccc([N+](=O)[O-])o1)N(C)CCCCCl)C(C)(C)C (centres undefined)	NCI/ADR-RES ovarian	38.5 µM
COc1cccc2c1c1nc3cc(C)c(C)cc3nc1n2CCN(C)C	NCI/ADR-RES ovarian	13.3 µM
C/C1=C\CC[C@@]2(C)O[C@@H]2[C@H]2OC(=O)C(C)C2C[C@H]1O (some centres undefined)	NCI/ADR-RES ovarian	> 100 µM
COc1cc(/C=N/NC2=NCCCN2)ccc1O	NCI/ADR-RES ovarian	> 100 µM
COC(=O)C(Cc1c[nH]c2ccccc12)NP(=O)(O)OCC1OC(n2cc(F)c(=O)[nH]c2=O)CC1O (centres undefined)	NCI/ADR-RES ovarian	> 100 µM
O=C1NC(Cc2c[nH]c3ccccc23)C(=O)N2C(c3ccccc3)c3[nH]c4ccccc4c3C[C@@H]12 (some centres undefined)	NCI/ADR-RES ovarian	58.3 µM
COc1cc2c(cc1OC)[C@@]1(C)C(=O)c3cc4c(cc3[C@H]1N(C)C2=O)OCO4	NCI/ADR-RES ovarian	> 100 µM
Cc1ccc(S(=O)(=O)n2cc(C(=O)C(=O)Nc3ccncc3)c3ccccc32)cc1	NCI/ADR-RES ovarian	> 34.1 µM
COc1cc(-c2nc3ccccc3s2)ccc1OCc1nc2n(n1)S(=O)(=O)c1ccccc1N2C	NCI/ADR-RES ovarian	> 100 µM
CCOn1cc(C2=C(c3c[nH]c4ccccc34)C(=O)NC2=O)c2ccccc21	NCI/ADR-RES ovarian	< 0.01 µM
C/C(=N/NC(=S)N1CCCC1)c1cccc(/C(C)=N\NC(=S)N2CCCC2)n1	NCI/ADR-RES ovarian	7.62 µM
COC(=O)[C@@H](C)C[C@H](Cc1ccccc1)NC(=O)c1csc([C@@H](C[C@H](C(C)C)N(C)C(=O)[C@@H](NC(=O)[C@H]2CCCCN2C)C(C)C)OC(C)=O)n1	NCI/ADR-RES ovarian	> 25 µM
O=C(/C=C\c1ccccc1-c1ccccc1)c1ccccc1	NCI/ADR-RES ovarian	> 100 µM
Cc1cc(C)nc(SC2=C(Nc3cccc(Cl)c3)C(=O)N(Cc3ccccc3)C2=O)n1	NCI/ADR-RES ovarian	> 170 µM
COC1/C=C\OC2(C)Oc3c(C)c(O)c4c(O)c(c(CN(C)C)c(O)c4c3C2=O)NC(=O)/C(C)=C\C=C/C(C)C(O)C(C)C(O)C(C)C(OC(C)=O)C1C (centres undefined)	NCI/ADR-RES ovarian	> 100 µM
CCCCc1ccc(N2C(=O)c3cccnc3S2(=O)=O)cc1	NCI/ADR-RES ovarian	> 100 µM
O=C1/C(=C/c2ccc(Cl)cc2)CN(C(=O)C(Cl)Cl)C/C1=C\c1ccc(Cl)cc1	NCI/ADR-RES ovarian	> 32.9 µM
N#CC(C#N)=C1CCCCc2ccc([N+](=O)[O-])cc21	NCI/ADR-RES ovarian	> 100 µM
COc1ccc(N2C(=O)/C(=C\c3cc(OC)c(OC)c(OC)c3)S(=O)(=O)C2c2ccccc2)cc1 (centres undefined)	NCI/ADR-RES ovarian	78.9 µM
O=C(O)CCSc1nnc(COc2ccc(Cl)cc2)n1-c1ccccc1	NCI/ADR-RES ovarian	> 100 µM
COC(=O)c1cc(C#N)[nH]c1-c1cccs1	NCI/ADR-RES ovarian	> 100 µM
O=C(CCCN1CC=C(n2c(=O)[nH]c3ccccc32)CC1)c1cccs1	NCI/ADR-RES ovarian	> 100 µM
COC(=O)/C=C(\S/C(=C(/c1ccc(OC)cc1)n1cc(C(=O)OC)c(C(=O)OC)n1)c1ccc(OC)cc1)C(=O)OC	NCI/ADR-RES ovarian	> 100 µM
O=C(/C=C/c1cccs1)c1ccc(C(=O)/C=C/c2cccs2)cc1	NCI/ADR-RES ovarian	> 100 µM
CC(C)N(c1cc2c(cc1F)c(=O)c(C(=O)O)cn2-c1ccc(N2CCN(C)CC2)cn1)C(C)C	NCI/ADR-RES ovarian	> 100 µM

----------
Attribute: TGI
test system: CCRF-CEM leukemia; assay: NCI tumour cell line growth inhibition, 48 h
Where a SMILES comes first, the peptide text is derived from it. The star is where a group is joined. OBn = c1ccc(CO*)cc1
ENDPOINT: TGI

COMPOUND	RESULT
COC(=O)c1c2c(c(C)[n+]([O-])c1C)C(=O)C(NCc1ccc(F)c(F)c1)=CC2=O	4.57 µM
CSC(=S)NNC(=O)c1ccncc1	43.1 µM
COC(=O)C(Cc1c[nH]c2ccccc12)NP(=O)(O)OCC1OC(n2cc(F)c(=O)[nH]c2=O)CC1O (stereo not given)	> 59.1 µM
COC(=O)[C@]12CSC[C@H]1C[C@H](c1ccc(N(C)C)cc1)N2	> 100 µM
COc1cc(-c2nc3ccccc3s2)ccc1OCc1nc2n(n1)S(=O)(=O)c1ccccc1N2C	> 100 µM
CSc1ccc(-c2cc(-c3nc4ccccc4[nH]3)nc3[nH]c(-c4nc5ccccc5[nH]4)cc(=O)c23)cc1	> 100 µM
CNC(=O)CN(CC(N)=O)C(=O)NC	> 100 µM
CCN(CC)c1ccc2c(c1)N=C1N=CC=CN1C2(c1ccc(N(C)C)cc1)c1ccc(N(C)C)cc1	23.5 µM
[N-]=[N+]=CC(=O)OCC(N)C(=O)O (stereo not given)	> 100 µM
COc1ccc(-c2nc(-c3nc4cc(C)c(C)cc4[nH]3)cc3c2[nH]c2ccccc23)cc1	7.56 µM
COC(=O)C1=CC2OC1(C)C1(CC1)C2=O (stereo not given)	23.2 µM
COc1cc(C(=O)n2nc(N3CCN(C)CC3)c3cc(N)ccc32)cc(OC)c1OC	> 100 µM
CCCCCCCCCC(=O)OCC1OC(n2cc(F)c(=O)[nH]c2=O)C(N)C(OC(=O)CCCCCCCCC)C1O (stereo not given)	50.4 µM
CC1=CCC[C@]2(C)C1=CC(=O)O[C@H]2c1ccoc1	> 100 µM
COc1ccc(C(CC(=O)c2ccccc2)C(=O)c2ccc3c(c2)OCO3)cc1 (stereo not given)	> 100 µM
Cc1cc(NCC2CC/C(=C\C=C\c3ccccc3)C2=O)no1 (stereo not given)	> 100 µM
CC(C)(O)[C@H]1[C@@H]2OC(=O)[C@H]1[C@]1(O)C[C@H]3OC34C(=O)O[C@H]2[C@@]41C (stereo not given in full) (tested in a mixture with another compound)	> 100 µM
COc1cc(C2S/C(=C/c3ccccc3)C(=O)N2c2ccc([N+](=O)[O-])cc2)cc(OC)c1OC (stereo not given)	> 100 µM
CO[C@H](c1ccccc1)[C@H](O)[C@](O)(c1ccccc1)P(=O)(OC)OC	> 100 µM
CC1=[N+]([O-])C(C)(C)N(O)C1(C)C	> 100 µM
O=C(Nc1ccc(Br)c(Cl)c1)c1cc(F)ccc1O	> 15.1 µM
C(/C=N/NC1=NCCCN1)=N\NC1=NCCCN1	> 100 µM
COC(=O)C1=CC2OC13CC1CCC3(C2=O)C1(C)C (stereo not given)	14.6 µM
CN(C)CCN1C(=O)c2ccccc2C1(O)c1ccc(Cl)cc1 (stereo not given)	> 100 µM
S=C1NN=C2C(=C3CCCC4C5CCCCC5N2C34)N1 (stereo not given)	> 100 µM
O=C(O)CC1(C(=O)O)CCCCC1	> 100 µM
O=C1CCSc2c(cnc3ccccc23)N1	> 100 µM
COc1ccc(NC(C)=O)cc1N1C(=O)/C(=C\c2cc(OC)c(OC)c(OC)c2)S(=O)(=O)C1c1ccccc1 (stereo not given)	> 100 µM
COc1cc2c(cc1OC)[C@@]1(C)C(=O)c3cc4c(cc3[C@H]1N(C)C2=O)OCO4	> 100 µM
CSC(=N)N1N=C2c3ccccc3CC[C@@H]2[C@@H]1c1ccccc1	65 µM
CCn1c(=O)c2c3ccc(O)cc3oc2c2ccc(O)cc21	> 100 µM
CCCC(=O)NNc1[nH]c(-c2ccc(OC)cc2)cc1C(=O)OCC	> 100 µM
C=C[C@]1(C)C=C2C(=O)[C@@]3(O)OC(=O)[C@@]4(CCCC(C)(C)[C@H]34)[C@@]2(O)CC1	10.7 µM
NC(CCC(=O)OCc1ccccc1)C(=O)NC(CCC(=O)OCc1ccccc1)C(=O)O (stereo not given) (H-Glu(OBn)-Glu(OBn)-OH; configuration not given here)	> 100 µM
Cc1ccc(S(=O)(=O)N/N=C(\C(=O)Nc2cccc([N+](=O)[O-])c2)c2nc3ccc([N+](=O)[O-])cc3[nH]c2=O)cc1	> 100 µM
Cc1n[nH]c(=O)n1/N=C/c1cccnc1	> 100 µM
Cc1ccc(NC(=O)c2ccnc(N3CCCC3)c2)cc1-c1ccc(C(=O)NCC2CC2)cc1	> 25 µM
CC(C)N1CCCOC(c2ccc([N+](=O)[O-])cc2)O1 (stereo not given)	> 100 µM
CCOC(=O)c1c(Cl)c2c(n1Cc1cc(OC)cc(OC)c1)-c1oncc1CCC2	> 100 µM
O=C1c2cccnc2C(=O)c2c1nc1ccccc1c2-c1cncc(-c2c3c(nc4ccccc24)C(=O)c2cccnc2C3=O)c1	2.08 µM
